assay target: FPRL-1 (Homo sapiens)
Sequence (P25090 whole entry): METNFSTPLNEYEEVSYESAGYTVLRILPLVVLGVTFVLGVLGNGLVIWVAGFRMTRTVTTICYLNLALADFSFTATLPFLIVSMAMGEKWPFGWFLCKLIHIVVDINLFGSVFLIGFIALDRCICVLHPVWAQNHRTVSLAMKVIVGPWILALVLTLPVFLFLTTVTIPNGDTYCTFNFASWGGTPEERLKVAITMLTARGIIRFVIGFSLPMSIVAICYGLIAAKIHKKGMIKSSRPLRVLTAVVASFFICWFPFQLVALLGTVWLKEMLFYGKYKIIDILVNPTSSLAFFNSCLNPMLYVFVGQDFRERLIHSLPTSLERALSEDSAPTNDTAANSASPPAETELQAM
procedure text: Compound-induced calcium activity on FLIPR Tetra in CHO-Gα16 cells stably expressing FPRL1
protocol conditions: tested 0.61 to 10,000 nM, read-out: FPRL-1 Ga16-CHO EC50
experimental endpoint: EC50 (nM)
Just the number in nM, nothing appended.

Example cases with answers are listed next.
Cc1cc(C)c2c(c1)C(C(=O)O)=C(C(=O)Nc1ccc(Br)cc1)CC2 [Compound 7] :: 3920
CC1(C)CC(C(=O)Nc2ccc(Br)cc2)=C(C(=O)O)c2ccccc21 [Compound 3] :: 87

Now look at this entry.
Query: Supply measured EC50 of CC1(C)CCC(C)(C)c2cc(C(=O)Nc3ccc(Br)cc3)c(C(=O)O)cc21 [Compound 10] in your reply.
Result: 1560
